Hey, just so you know, these numbers are from the supplement of paper PMC10567573.

B1: RSPH3 (parent)
chain: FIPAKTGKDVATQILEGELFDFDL

Variants of: B1
Experiment: protein stability index of a GFP-peptide fusion (GPS, HEK-293T) (PSI 1-6); higher = more stable;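 further: lentivirally expressed fusions sorted by FACS into six bins by GFP to DsRed ratio, PSI derived from sequencing read proportions per bin multiplied by bin number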
Conditions: c terminus: a fixed tail appended
Recorded measurements of protein stability index, one per entry
Reply: number alone, nothing else.

Reference set, count: 5
1. V10E | 2.52
2. V10R | 1.58
3. F1D | 4.77
4. P3Q | 2.5
5. F1W | 2.66

Inquiry: Sample `V10N` — what was its protein stability index?
Reply text: 2.12

Inquiry: Follow-up item: `E18W`
Reply text: 1.95

Inquiry: Follow-up item: `L24W`
Reply text: 3.71
